# Tested on: SR leukemia
# assay_name: NCI tumour cell line growth inhibition, 48 h
Each entry below lists one item and its recorded TGI value.

{"columns": ["compound", "TGI"],
 "data": [
  ["C=CC[PH+](c1ccccc1)c1ccccc1.C=CC[PH+](c1ccccc1)c1ccccc1.[Pt+2].[S-]c1nc2ccccc2[nH]1.[S-]c1nc2ccccc2[nH]1", "> 100 µM"],
  ["COc1cc(OC)c(/C=C/S(=O)(=O)Cc2ccc(OC)c(N)n2)c(OC)c1", "> 100 µM"],
  ["O=c1[nH]nc(-c2cccc([N+](=O)[O-])c2)[nH]1", "> 100 µM"],
  ["CSCSCC(CO)NC(=O)/C=C/c1c(C)[nH]c(=O)[nH]c1=O (stereo not drawn)", "> 100 µM"],
  ["COc1oc(C2C/C(=C/C(C)=C/C(C)=C/C(C)=C/c3ccc([N+](=O)[O-])cc3)CO2)c(C)c(=O)c1C (stereo not drawn)", "3 µM"]
]}

Req: Look up TGI with SR leukemia for this compound: COc1cccc(C2c3cc4c(cc3OC(NNS(=O)(=O)c3ccc(C)cc3)C2C)OCO4)c1O (stereo not drawn)
Resp: 26.2 µM

Req: # get_value(readout= TGI, system= SR leukemia) for C#C[C@]1(O)CC[C@H]2[C@@H]3CCC4=C/C(=N/OC(=O)c5cccc6cc7ccccc7nc56)CC[C@@H]4[C@H]3CC[C@@]21CC
Resp: > 100 µM

Req: Record O=C(NOCCO)c1ccc2cncn2c1Nc1ccc(I)cc1F : what is its TGI with SR leukemia?
Resp: > 100 µM
